# reported IC50; entries follow
biological target: murine STING protein (amino acids 154-378) (Mus musculus (Mouse), UniProt Q3TBT3); assay: Murine STING [3H] 2′,3′-cGAMP scintillation proximity competition binding assay; details: read-out: Murine Binding IC50
Sequence (Q3TBT3 154-378): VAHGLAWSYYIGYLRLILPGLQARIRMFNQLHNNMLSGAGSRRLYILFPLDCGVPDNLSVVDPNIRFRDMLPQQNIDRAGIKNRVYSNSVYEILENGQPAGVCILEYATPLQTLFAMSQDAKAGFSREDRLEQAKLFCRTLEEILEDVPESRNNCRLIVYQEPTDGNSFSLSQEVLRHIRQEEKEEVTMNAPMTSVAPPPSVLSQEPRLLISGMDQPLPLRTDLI
experimental.readout: IC50

>>> assay_value("COCc1ncc2nc3n(c2n1)CCOP(=O)(S)OC[C@H]1O[C@@H](n2cnc4c(=O)[nH]c(N)nc42)[C@H](OP(=O)(S)OC3)[C@@H]1F (stereo partly shown) [Example 40C]")
"< 1 µM"
>>> assay_value("Nc1nc2c(ncn2[C@@H]2O[C@@H]3COP(=O)(S)OCCn4c(nc5c(N)ncnc54)COP(=O)(S)O[C@@H]2[C@@H]3F)c(=O)[nH]1 (single isomer, unassigned) [Example 7C]")
"< 1 µM"
>>> assay_value("Nc1nc2c(ncn2[C@@H]2O[C@@H]3COP(=O)(S)OCCn4c(nc5cnc(C6CC6)nc54)COP(=O)(S)O[C@@H]2[C@@H]3F)c(=O)[nH]1 (single isomer, unassigned) [Example 12D]")
"1 to 9.99 µM"
>>> assay_value("Nc1nc2c(ncn2[C@@H]2O[C@@H]3COP(=O)(S)OCCn4c(nc5c(N)ncnc54)COP(=O)(S)O[C@@H]2[C@@H]3F)c(=O)[nH]1 (single isomer, unassigned) [Example 7A]")
"< 1 µM"

* * *

biological target: murine STING protein (amino acids 154-378) (Mus musculus (Mouse)); experiment: Murine STING [3H] 2′,3′-cGAMP scintillation proximity competition binding assay; settings: read-out: Murine Binding IC50
experimental.readout: IC50

>>> assay_value("Nc1nc2c(nnn2[C@@H]2O[C@@H]3COP(=O)(S)OCCn4c(nc5cncnc54)COP(=O)(S)O[C@@H]2[C@@H]3F)c(=O)[nH]1 (single isomer, unassigned) [Example 24C]")
"< 1000 nM"
>>> assay_value("Nc1nc2c(ncn2[C@@H]2O[C@@H]3COP(=O)(S)OCCn4nc(-c5cncs5)nc4COP(=O)(S)O[C@@H]2[C@@H]3F)c(=O)[nH]1 (single isomer, unassigned) [Example 16D]")
"< 1000 nM"
>>> assay_value("Nc1nc2ncn([C@@H]3O[C@@H]4COP(=O)(S)OCCn5c(nc6cc(Cl)cnc65)COP(=O)(S)O[C@@H]3[C@@H]4F)c2c(=O)[nH]1 (single isomer, unassigned) [Example 13B]")
"1000 to 9990 nM"
>>> assay_value("Nc1nc2c(ncn2[C@@H]2O[C@@H]3COP(=O)(S)OCCn4c(nc5cncnc54)COP(=O)(S)O[C@@H]2[C@@H]3O)c(=O)[nH]1 (mixture of isomers) [Example 15A]")
"< 1000 nM"
>>> assay_value("C[C@H]1COP(=O)(S)OC[C@H]2O[C@@H](n3cnc4c(=O)[nH]c(N)nc43)[C@H](OP(=O)(S)OCc3nc4cncnc4n31)[C@@H]2F (single isomer, unassigned) [Example 20D]")
"10000 to 100000 nM"
>>> assay_value("CO[C@H]1[C@H]2OP(=O)(S)OCc3nc4cncnc4n3CCOP(=O)(S)OC[C@H]1O[C@H]2n1cnc2c(=O)[nH]c(N)nc21 (single isomer, unassigned) [Example 27C]")
"< 1000 nM"
>>> assay_value("CO[C@H]1[C@H]2OP(=O)(S)OCc3nc4cncnc4n3CCOP(=O)(S)OC[C@H]1O[C@H]2n1cnc2c(=O)[nH]c(N)nc21 (single isomer, unassigned) [Example 27D]")
"< 1000 nM"
>>> assay_value("Nc1nc2c(ncn2[C@@H]2O[C@@H]3COP(=O)(S)OCCn4c(nc5c(N)ncnc54)COP(=O)(S)O[C@@H]2[C@@H]3F)c(=O)[nH]1 (single isomer, unassigned) [Example 7D]")
"< 1000 nM"
>>> assay_value("Nc1nc2c(ncn2[C@@H]2O[C@@H]3COP(=O)(S)OCCn4c(nc5cc(Cl)cnc54)COP(=O)(S)O[C@@H]2[C@@H]3F)c(=O)[nH]1 (single isomer, unassigned) [Example 14D]")
"< 1000 nM"
>>> assay_value("Nc1nc2c(nnn2[C@@H]2O[C@@H]3COP(=O)(S)OCCn4c(nc5cncnc54)COP(=O)(S)O[C@@H]2[C@@H]3F)c(=O)[nH]1 (single isomer, unassigned) [Example 24A]")
"< 1000 nM"
>>> assay_value("Nc1nc2c(ncn2[C@@H]2O[C@@H]3COP(=O)(S)OCCn4nc(-c5cncs5)nc4COP(=O)(S)O[C@@H]2[C@@H]3F)c(=O)[nH]1 (single isomer, unassigned) [Example 16C]")
"< 1000 nM"
>>> assay_value("Nc1nc2c(ncn2[C@@H]2O[C@@H]3COP(=O)(S)OCCn4c(nc5c(=O)[nH]cnc54)COP(=O)(S)O[C@@H]2[C@@H]3F)c(=O)[nH]1 (single isomer, unassigned) [Example 3D]")
"1000 to 9990 nM"
>>> assay_value("Nc1nc2c(ncn2[C@@H]2O[C@@H]3COP(=O)(O)OCCn4c(nc5cncnc54)COP(=O)(S)O[C@@H]2[C@@H]3F)c(=O)[nH]1 (single isomer, unassigned) [Example 5B]")
"1000 to 9990 nM"

Hey, just so you know, these numbers are from patent US11161864B2.
